- Read-out: Interleukin-8 (IL8), CXCL8 (gene 3576)
- procedure-summary: BSK_MyoF_IL8: BioMAP Diversity Plus: MyoF Assay for Interleukin-8 (IL8) Biomarker Activity (AID 2284261)
- experimental-conditions: primary human lung fibroblasts
Active and inactive are the calls of the source. How the source made its calls: active means hit-call score of the fitted dose curve at least 0.9, where 1 is the maximum; inactive means score below 0.9.
Outcome codes: YES = active, NO = inactive

> print(dat)
                                    compound  group.label
 1            CCCCC/C=C\C/C=C\CCCCCCCC(=O)OC           NO
 2   C=CC(=O)OCC(Br)CBr (stereo unspecified)           NO
 3               C/C=C\C/C=C/CCCCCCCCOC(C)=O           NO
 4  CC(C)(c1cc(Br)c(OCCO)c(Br)c1)c1cc(Br)c(OCCO)c(Br)c1          YES
 5                       c1ccc(-c2ccccn2)nc1           NO
 6                   C=CCOc1c(Br)cc(Br)cc1Br           NO
 7                    O=c1c2ccccc2oc2ccccc12           NO
 8              CCCCCCCCCCCCCCCC[N+](C)(C)CC           NO
 9      N#[N+]c1ccc2c(S(=O)(=O)[O-])cccc2c1O           NO
10                 CCO[Si](CCCN=C=O)(OCC)OCC           NO
11        C=CCOCC(O)CCl (stereo unspecified)           NO
